- experiment: 384-well plate pilot, post-Golgi transport modulator project, inhibition of yeast transport mutant growth (AID 636)
- conditions: absorbance 615 nm, about 18 h, stronger effect = higher value
Parameter: inhibition. Scope: all listed entries.
Respond numerically; units are % and should not be typed.

Exercise: Name the reported inhibition value associated with the molecule "COC(=O)Nc1nc2c(C)cccc2s1"
Solution: 1.18

Exercise: What do we get for "Cc1csc(NC(=O)c2ccco2)n1" ?
Solution: -3.46

Exercise: Lookup "COC(=O)CSc1nc2ncc(Cl)cc2[nH]1"
Solution: -5.06

Exercise: What do you get for "O=c1oc2ccccc2n1CCn1c2ccccc2c2nc3ccccc3nc21" ?
Solution: -1.05

====

Quick list: viability per entry.
- experiment: reducers of endogenous Her2 protein level, primary screen, SKBR3 breast tumor cells, AlphaScreen, ATP viability (AID 461);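 further: percent of carrier control wells set as 100% viability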
- conditions: 18-24 h, measured here: SKBR3 viability, ATP luminescence, at 10 µM
Give your result in % as a bare value.

Please review the following examples before continuing.
[[record]]
molecule = "COc1ccccc1NC(=O)c1ccc(NC(=O)CSc2nnnn2C)cc1"
readout = "viability"
readout_unit = "%"
endpoint_value = 92

[[record]]
molecule = "COc1ccc2nc(NC(=O)c3ccoc3C)sc2c1"
readout = "viability"
readout_unit = "%"
endpoint_value = 99

[[record]]
molecule = "COc1cc(C(=O)N2CCC(NC(=O)C(Cc3ccc(C)cc3)NC(C)=O)CC2)cc(OC)c1OC (stereo unspecified)"
readout = "viability"
readout_unit = "%"
endpoint_value = 92

[[record]]
molecule = "Clc1ccc(Cc2nn3c(-c4ccncc4)nnc3s2)cc1"
readout = "viability"
readout_unit = "%"
endpoint_value = 99.5

[[record]]
molecule = "CS(=O)(=O)N1CCCC(C(=O)NCCCN2CCc3ccccc3C2)C1 (stereo unspecified)"
readout = "viability"
readout_unit = "%"
endpoint_value = 93


Exercise: # input molecule: "COc1ccc(CCNC(=O)C2=COCCO2)cc1" ; wanted: its viability
Solution: 126

====

Here, each record is paired with measured differential viability (reversal) data.
- experiment: reversal of MRP1-mediated doxorubicin resistance, pilot screen, H69AR cells, doxorubicin co-treatment (AID 601)
- conditions: H69AR cells + 2 uM doxorubicin, CellTiter-Glo, 72 h; at 10 µM; stronger effect = higher value
Hi! Could you send only the number? It should be in %, unit omitted.

[[record]]
molecule = "CCOC(=O)CSc1nc(C)c(C(=O)OCC)s1"
readout = "differential viability (reversal)"
readout_unit = "%"
endpoint_value = 3.4

[[record]]
molecule = "CCOCCc1nnc(NC(=O)c2ccc(OC)c(OC)c2)s1"
readout = "differential viability (reversal)"
readout_unit = "%"
endpoint_value = -1.97

[[record]]
molecule = "COc1ccccc1C1c2c(oc3ccc(Cl)cc3c2=O)C(=O)N1c1cc(C)on1 (stereo unspecified)"
readout = "differential viability (reversal)"
readout_unit = "%"
endpoint_value = -3.51

[[record]]
molecule = "COc1ccccc1C(=O)n1nc(-c2ccc(Cl)cc2)nc1N"
readout = "differential viability (reversal)"
readout_unit = "%"
endpoint_value = -13.7

[[record]]
molecule = "Cc1ccc2c(c1)CCCN2C(=O)Nc1ccc2c(c1)OCO2"
readout = "differential viability (reversal)"
readout_unit = "%"
endpoint_value = 0.28

[[record]]
molecule = "O=C1CS/C(=N\\C(=O)N2c3ccccc3Sc3ccccc32)N1"
readout = "differential viability (reversal)"
readout_unit = "%"
endpoint_value = 14.4


Exercise: What value of differential viability (reversal) has been reported for the following molecule? "COc1ccc2nc(NC(=O)c3ccoc3C)sc2c1"
Solution: -13.7

Exercise: Further, for "COc1ccc(S(=O)(=O)N2CCOCC2)cc1C(=O)Nc1cc(C)on1" ?
Solution: 8.07

Exercise: What about O=C(C1CCCN(S(=O)(=O)c2cccs2)C1)N1CCc2ccccc2C1 (stereo unspecified) ?
Solution: -6.37

Exercise: # iterate: CCCOC(=O)C1[C@H]2C(=O)N(CCCOC)C[C@]23C=C[C@H]1O3 (stereo partly specified)
Solution: -1.98

Exercise: Next molecule: "COc1cc2c(cc1OC)-c1cc(OCc3cccnc3)nc(=O)n1CC2"
Solution: 2.05

Exercise: # repeat for "CC(=O)N1CCN(Cc2ccc(Br)s2)CC1"
Solution: 11.1

Exercise: # repeat for O=C(C1CCCN(S(=O)(=O)c2cnc[nH]2)C1)N1CC(=O)N(CCc2ccccc2)C(=O)C1 (stereo unspecified)
Solution: -4.7

Exercise: For "COc1ccc(NC(=O)CCc2nc(-c3ccccc3F)no2)cc1" then?
Solution: 4.53

Exercise: Repeat for the following molecule: "Cc1nc(=S)n(-c2ccccc2)[nH]1"
Solution: 2.28

Exercise: Similarly, C=CCn1c2ccccc2c2nnc(SCC(=O)NC(C(=O)OC)C(C)C)nc21 (stereo unspecified) ?
Solution: 2.25

Exercise: Try Cn1c(=O)c2c(ncn2CC(O)CNc2ccc(Cl)cc2)n(C)c1=O (stereo unspecified) next.
Solution: 0.365

Exercise: Now this one: "Cc1nnc2ccc(N3CCN(c4cccc(C(F)(F)F)c4)CC3)nn12"
Solution: 18.7

Exercise: Note, next up: "c1ccc(Cc2ccc(OCCn3cncn3)cc2)cc1"
Solution: 14.6

Exercise: Try this molecule next: Cc1cc(NC(c2cccnc2)c2c(C)[nH]c3ccccc23)no1 (stereo unspecified)
Solution: -8.09

Exercise: Another molecule: "COc1cccc(-c2csc3nnc(SCC(=O)c4ccc(NC(C)=O)cc4)n23)c1"
Solution: -9.79

Exercise: Record: CCOP(=O)(c1ccc(N(C)C)cc1)C(O)c1ccccc1OC (stereo unspecified)
Solution: 3.56

Exercise: Same for "CCOC(=O)CCCn1nc(C)n2c(cc3sccc32)c1=O"
Solution: 20.7

Exercise: Do the same for "c1ccc(-n2c(Sc3cnccn3)nnc2-c2cccs2)cc1" please
Solution: 7.33

Exercise: One more molecule: "O=C(c1ccccc1)c1ccc2nc[nH]c2c1"
Solution: -15.3

Exercise: Quick one: "O=S(=O)(NCc1ccccc1)c1ccc2c(c1)OCCO2"
Solution: -7.4

Exercise: Moving on to CCn1c(SCC(=O)N2CCOCC2)nc2c(c1=O)SC(C)C2 (stereo unspecified)
Solution: 6.23

Exercise: Continue with CCCCC(c1nnnn1C1CCCC1)N1CCN(C2CCCCC2)CC1 (stereo unspecified)
Solution: 20.4

Exercise: Now consider CCOC(=O)COc1ccc(C2NC(C(=O)O)CS2)cc1 (stereo unspecified) .
Solution: 5.91

Exercise: Further, for "CC(=O)N(C)C1(c2nnnn2CCOC(=O)Nc2ccc(Cl)cc2)CCCCC1" ?
Solution: 12.5

Exercise: What do you get for COc1ccc(-n2c(Cc3cccn3C)nnc2SCC(=O)NCC2CCCO2)cc1 (stereo unspecified) ?
Solution: 7.7

Exercise: Moving on to "Nn1c(SCC(=O)Nc2ccc3c(c2)OCCO3)nnc1C(F)(F)F"
Solution: -7.85
